assay: Serum pharmacokinetics of THC and metabolites after inhaled or i.p. THC; format: in vivo, female Sprague Dawley rats; conditions: female, Sprague Dawley, rat, serum, inhaled or intranasal, 0.19 mg/kg
TEST_READOUT: CL/F

Which CL/F is listed for CCCCCc1cc(O)c2c(c1)OC(C)(C)[C@@H]1CCC(C)=C[C@@H]21 [THC, delta-9-tetrahydrocannabinol] ?
38.3 mL/min/kg

###

assay: Serum pharmacokinetics of THC and metabolites after inhaled or i.p. THC; format: in vivo, female Sprague Dawley rats; details: female, Sprague Dawley, rat, serum, inhaled or intranasal, 0.19 mg/kg
TEST_READOUT: Tmax

Which Tmax is listed for CCCCCc1cc(O)c2c(c1)OC(C)(C)[C@@H]1CCC(C)=C[C@@H]21 [THC, delta-9-tetrahydrocannabinol] ?
10 min

###

assay: Serum pharmacokinetics of THC and metabolites after inhaled or i.p. THC; assay type: in vivo, female Sprague Dawley rats; settings: female, Sprague Dawley, rat, serum, inhaled or intranasal, 0.19 mg/kg
TEST_READOUT: Cmax

Which Cmax is listed for CCCCCc1cc(O)c2c(c1)OC(C)(C)[C@@H]1CCC(C)=C[C@@H]21 [THC, delta-9-tetrahydrocannabinol] ?
43.3 ng/mL

###

experiment: Serum pharmacokinetics of THC and metabolites after inhaled or i.p. THC; type: in vivo, female Sprague Dawley rats; settings: female, Sprague Dawley, rat, serum, inhaled or intranasal, 0.19 mg/kg
TEST_READOUT: AUC(0-inf) (ng·h/mL)
Value expressed in ng·h/mL; do not type the unit.

Which AUC(0-inf) is listed for CCCCCc1cc(O)c2c(c1)OC(C)(C)[C@@H]1CCC(C)=C[C@@H]21 [THC, delta-9-tetrahydrocannabinol] ?
87
